# credit: patent US8822468B2

As shown below, each of these compounds has a reported IC50 value.
Target: cMET receptor tyrosine kinase (GST-cMET (969-1390)) (Homo sapiens, UniProt P08581)
Sequence (P08581 969-1390): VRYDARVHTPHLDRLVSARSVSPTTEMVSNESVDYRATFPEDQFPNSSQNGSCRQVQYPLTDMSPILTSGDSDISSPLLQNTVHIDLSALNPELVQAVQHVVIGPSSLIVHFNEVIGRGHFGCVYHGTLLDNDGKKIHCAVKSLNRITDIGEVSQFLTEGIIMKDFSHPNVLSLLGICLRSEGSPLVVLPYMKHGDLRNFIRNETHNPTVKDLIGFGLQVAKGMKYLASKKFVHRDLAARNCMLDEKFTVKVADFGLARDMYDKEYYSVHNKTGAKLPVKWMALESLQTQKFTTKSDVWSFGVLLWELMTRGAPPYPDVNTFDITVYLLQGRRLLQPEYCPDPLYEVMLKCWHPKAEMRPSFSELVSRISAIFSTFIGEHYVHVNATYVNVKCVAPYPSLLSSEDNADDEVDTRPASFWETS
Experiment: EPK cMET profiling assay (LanthaScreen TR-FRET antibody based kinase phosphorylation assay)
Settings: purified recombinant GST-cMET (969-1390), 2 μM ATP, 50 nM Fluorescein-PolyEAY, 60 minutes at room temperature; read-out: c-Met IC50
Quick reminder: number only, in nM, skip the unit.

Example results:
| compound | result-number |
| --- | --- |
| Cn1cnc2ccc(Cc3cnc4ccc(-c5cnn(CCO)c5)nn34)cc21 | 84 |
| O=C(NCCN1CCCC1)c1ccc(-c2ccc3ncc(Cc4ccc5ncccc5c4)n3n2)cc1Cl | 3.2 |
| Clc1ccc(-c2ccc3ncc(Cc4ccc5ncccc5c4)n3n2)cn1 | 100 |
| Fc1cc2ncccc2cc1Cc1cnc2ccc(-c3cn[nH]c3)nn12 | 21 |
| Cn1cc(-c2ccc3ncc([C@](C)(O)c4cc5cccnc5cc4F)n3n2)cn1 | 38 |
| C[C@H](c1c(F)cc2ncccc2c1F)c1cnc2ccc(-c3cnn(CCO)c3)nn12 | 200 |
| c1ccc(Nc2ccc3ncc(Cc4ccc5ncccc5c4)n3n2)cc1 | 73 |
| OCCCc1ccc(-c2ccc3ncc(Cc4ccc5ncccc5c4)n3n2)cc1 | 79 |

input: Bench note: what IC50 did `CN1CCC(n2cc(-c3ccc4ncc(Cc5ccc6ncccc6c5)n4n3)cn2)CC1` show?
output: 230

input: Request the reported IC50 associated with CC(c1ccc2ncccc2c1)c1cnc2ccc(-c3cnn(CCO)c3)nn12 (racemic)
output: 20

input: // query IC50 value for entry `Cn1cc(-c2ccc3ncc(Cc4ccc5c(cnn5C)c4)n3n2)cn1`
output: 82

input: # query: IC50 of entry `Cn1cc(-c2ccc3ncc(Cc4ccc5ncc(CO)n5c4)n3n2)cn1`
output: 300

input: Any idea what its IC50 is? The compound is `OCCNc1ccc2ncc(Cc3ccc4nccn4c3)n2n1`
output: 300

* * *

Target: cMET receptor tyrosine kinase (GST-cMET (969-1390)) (Homo sapiens)
Construct: made in house
Assay: EPK cMET profiling assay (LanthaScreen TR-FRET antibody based kinase phosphorylation assay)
Assay type: biochemical
Details: purified recombinant GST-cMET (969-1390), 2 μM ATP, 50 nM Fluorescein-PolyEAY, 60 minutes at room temperature; read-out: c-Met IC50
measure: log10(IC50) (log10 of the value in nM)
All values: base-10 log of IC50 in nM.

Below, 8 molecules whose answers are already recorded.
| molecule | target-desc | log10(IC50) |
| --- | --- | --- |
| Fc1cc2ncccc2c(F)c1Cc1cnc2ccc(-c3cnn(C4CCNCC4)c3)nn12 | cMET receptor tyrosine kinase (GST-cMET (969-1390)) (Homo sapiens) | 1.64 |
| C[C@@H](c1ccc2ncccc2c1)c1cnc2ccc(-c3cnn(C4CCN(C)CC4)c3)nn12 | cMET receptor tyrosine kinase (GST-cMET (969-1390)) (Homo sapiens) | 1.49 |
| [2H]C([2H])(c1ccc2ncccc2c1)c1cnc2ccc(Cl)nn12 | cMET receptor tyrosine kinase (GST-cMET (969-1390)) (Homo sapiens) | 2.32 |
| Oc1ccc(-c2ccc3ncc(Cc4ccc5ncccc5c4)n3n2)cn1 | cMET receptor tyrosine kinase (GST-cMET (969-1390)) (Homo sapiens) | 1.68 |
| F[C@H]1CCN(c2ccc3ncc(Cc4ccc5ncccc5c4)n3n2)C1 | cMET receptor tyrosine kinase (GST-cMET (969-1390)) (Homo sapiens) | 2.11 |
| c1cnc2ccc(Cc3cnc4ccc(Nc5ccc(CN6CCCCC6)cc5)nn34)cc2c1 | cMET receptor tyrosine kinase (GST-cMET (969-1390)) (Homo sapiens) | 1.20 |
| c1cnc2ccc(Cc3cnc4ccc(N5CCOCC5)nn34)cc2c1 | cMET receptor tyrosine kinase (GST-cMET (969-1390)) (Homo sapiens) | 1.69 |
| Cn1cc(-c2ccc3ncc(Cc4ccc(O)cc4)n3n2)cn1 | cMET receptor tyrosine kinase (GST-cMET (969-1390)) (Homo sapiens) | 1.72 |

input: Data request, read-out log10(IC50), for `C[C@@H](c1ccc2ncn(C)c2c1)c1cnc2ccc(-c3cnn(CCO)c3)nn12`
output: 1.28

input: Field request: log10(IC50) | item: `Clc1cccc(Nc2ccc3ncc(Cc4ccc5ncccc5c4)n3n2)c1Cl`
output: 2.54

input: // query log10(IC50) value for entry `CN(C)C(=O)c1cccc(-c2ccc3ncc(Cc4ccc5ncccc5c4)n3n2)c1`
output: 2.75

input: Fill in the blank: the reported log10(IC50) of `O=C1CCN(c2ccc3ncc(Cc4ccc5ncccc5c4)n3n2)CCN1` is ____.
output: 1.79

input: Consider the molecule shown here: `FC(F)(F)Oc1ccc(-c2ccc3ncc(Cc4ccc5ncccc5c4)n3n2)cc1` What is its recorded log10(IC50)?
output: 2.54

input: What does the record list as log10(IC50) for `Cc1nc2ccc(Cc3cnc4ccc(-c5cnn(C)c5)nn34)cc2s1` ?
output: 1.87

input: Entry under review: `Cn1cc(-c2ccc3ncc(Cc4c(F)cc5c(cnn5C)c4F)n3n2)cn1` . Reported log10(IC50)?
output: 2.18

input: Return reported log10(IC50); argument: Cn1cc(-c2ccc3ncc(C(O)c4cc5cccnc5cc4F)n3n2)cn1 (racemic)
output: 2.57

input: Which value of log10(IC50) has been reported for `CC(=O)c1ccc(-c2ccc3ncc(Cc4ccc5ncccc5c4)n3n2)cc1` in the records?
output: 1.44

input: Quick one: log10(IC50) for `CN(C)[C@@H]1CCN(c2ccc3ncc(Cc4ccc5nccn5c4)n3n2)C1` ?
output: 2.48
